# SYSTEM: UniProt:Q9Y5N1
# Sequence (Q9Y5N1 whole entry): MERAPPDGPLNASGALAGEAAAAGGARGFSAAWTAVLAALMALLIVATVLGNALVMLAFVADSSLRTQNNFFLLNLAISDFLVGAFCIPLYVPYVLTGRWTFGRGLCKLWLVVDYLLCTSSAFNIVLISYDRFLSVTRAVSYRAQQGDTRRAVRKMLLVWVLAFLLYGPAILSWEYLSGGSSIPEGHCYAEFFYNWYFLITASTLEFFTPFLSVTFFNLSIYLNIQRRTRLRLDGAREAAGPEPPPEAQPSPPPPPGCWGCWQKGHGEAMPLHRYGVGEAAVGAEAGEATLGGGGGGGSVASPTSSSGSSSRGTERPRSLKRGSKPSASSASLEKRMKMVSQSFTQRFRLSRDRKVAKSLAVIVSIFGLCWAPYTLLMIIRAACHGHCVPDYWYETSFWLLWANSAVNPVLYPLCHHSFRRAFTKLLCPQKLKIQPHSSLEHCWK
# ASSAY PROTOCOL: Displacement of 2 nM [3H]UR-PI294 from human H3R expressed in Sf9 cell membranes co-expressing Gia2 and beta1gamma2 by competition binding assay
REPORTED ENDPOINT: Ki (nM)
Provide the reading as a plain figure in nM.

Some compounds with recorded Ki:
[
  {
    "COMPOUND": "CC(C)(C)CNc1nccc(N2CCCNCC2)n1",
    "Ki [nM]": 537
  },
  {
    "COMPOUND": "CC(C)(C)CNc1nccc(NCCc2c[nH]cn2)n1",
    "Ki [nM]": 9.55
  },
  {
    "COMPOUND": "CC(C)(C)CNc1nccc(NCCCc2c[nH]cn2)n1",
    "Ki [nM]": 9.33
  },
  {
    "COMPOUND": "CN[C@@H]1CCN(c2ccnc(NCC(C)(C)C)n2)C1",
    "Ki [nM]": 27.5
  },
  {
    "COMPOUND": "CC(C)(C)CNc1nccc(NC2CCNC2)n1 (stereo not drawn)",
    "Ki [nM]": 204
  },
  {
    "COMPOUND": "CC(C)(C)CNc1nccc(NC2CCNCC2)n1",
    "Ki [nM]": 3470
  },
  {
    "COMPOUND": "CC(C)(C)CNc1nccc(NCCCN)n1",
    "Ki [nM]": 5620
  }
]

Data request: Supply Ki value. Item: CCC(=O)N[C@@H]1CCN(c2ccnc(NCC(C)(C)C)n2)C1
Data returned: 3020
